target: recombinant purified human IL-12 p70 (human) (UniProt P29459); assay: competition ELISA on plate-coated human IL-12; competes 0.8 µg/ml biotinylated 8E1; Expt. 3
Sequence (chain, as listed by the source, form in doubt, chain 1 of 2): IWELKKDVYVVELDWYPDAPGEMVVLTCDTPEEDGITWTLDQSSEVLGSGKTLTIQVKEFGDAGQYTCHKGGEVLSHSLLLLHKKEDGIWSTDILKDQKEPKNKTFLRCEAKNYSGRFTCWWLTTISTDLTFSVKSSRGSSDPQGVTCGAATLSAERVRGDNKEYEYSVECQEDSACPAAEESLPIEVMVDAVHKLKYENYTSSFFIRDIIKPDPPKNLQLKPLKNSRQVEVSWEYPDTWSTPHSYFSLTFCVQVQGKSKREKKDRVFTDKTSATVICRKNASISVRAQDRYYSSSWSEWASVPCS
Sequence (P29459 23-219, form in doubt, chain 2 of 2): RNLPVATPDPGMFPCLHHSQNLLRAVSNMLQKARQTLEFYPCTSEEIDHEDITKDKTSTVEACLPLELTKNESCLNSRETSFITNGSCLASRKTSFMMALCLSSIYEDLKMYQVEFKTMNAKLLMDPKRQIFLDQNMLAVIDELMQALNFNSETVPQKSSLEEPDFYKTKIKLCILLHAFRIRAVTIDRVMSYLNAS
Quick list: IC50 per entry.
Reply numerically in µg/mL, unit not repeated.

Use the examples below as a reference point.
Binder | Test value
8E1.5 (antibody, IgG1, V domains shown) VH: EVQLVESGGGLVQPGGSLRLSCAASGFTFSDYGMVWVRQAPGKGLEWVASISSGSSNIYYADTVKGRFTISRDNAKNTLYLQMNSLRAEDTAVYYCARNPYWGQGTLVTVSS VL: DIQMTQSPSSLSASVGDRVTITCKASQNVGTNVAWYQQKPGKAPKGLIYSASHRYSGVPDRFSGSGSGTDFTLTISSLQPEDFATYYCQQYNSYPLTFGGGTKVEIKR | 13.4
8E1.6 (antibody, V domains shown) VH: EVQLVESGGGLVQPGGSLRLSCAASGFTFSDYGMVWVRQAPGKGLEWVASISSGSSNIYYADTVKGRFTISRDDAKNTLYLQMNSLRAEDTAVYYCARNPYWGQGTLVTVSS VL: DIQMTQSPSSLSASVGDRVTITCKASQNVGTNVAWYQQKPGKAPKGLIYSASHRYSGVPSRFSGSGSGTDFTLTISSLQPEDFATYYCQQYNSYPLTFGGGTKVEIKR | 1.61
8E1.4 (antibody, IgG1, V domains shown) VH: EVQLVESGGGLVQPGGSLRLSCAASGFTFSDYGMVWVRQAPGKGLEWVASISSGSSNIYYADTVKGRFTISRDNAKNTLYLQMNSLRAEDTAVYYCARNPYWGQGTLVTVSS VL: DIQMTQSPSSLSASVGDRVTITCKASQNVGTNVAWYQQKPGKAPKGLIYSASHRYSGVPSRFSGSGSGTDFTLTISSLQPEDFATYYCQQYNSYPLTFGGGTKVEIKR | 8.33

// next entry
# lookup: IC50 of 8E1 (antibody, V domains shown) VH: EVKLVESGGGLVQPGGSRKLSCAASGFTFSDYGMVWVRQAPGKGLEWVASISSGSSNIYYADTVKGRFTISRDDPNNTLFLQMRSLRSEDTAMYYCARNPYWGQGTTLTVSS VL: DIVMTQSQKFMSTSVGDRVSVTCKASQNVGTNVAWYQQKPGQSPKGLIYSASHRYSGVPDRFAGSGSGTDFTLTISNVQSEDLAEYFCQQYNSYPLTFGGGTKLELKR
2.28

The reported numbers originate from patent US20100047245A1.
